Every entry's value here was drawn from BindingDB's records for doi:10.1021/jm801420y.

Quick list: pIC50 per entry.
study.system: Sonic hedgehog protein (Homo sapiens, UniProt Q15465)
Sequence (Q15465 24-197 limits assumed): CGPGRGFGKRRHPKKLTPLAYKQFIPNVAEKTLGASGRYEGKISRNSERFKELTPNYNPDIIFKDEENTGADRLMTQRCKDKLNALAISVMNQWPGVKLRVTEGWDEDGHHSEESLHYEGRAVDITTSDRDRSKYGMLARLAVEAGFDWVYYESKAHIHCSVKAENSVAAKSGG
method: Inhibition of lipid-modified (octylated) form of SHH expressed in mouse s12 cells by luciferase reporter gene assay
Remember, pIC50 is on a log scale: it is -log10 of the molar concentration.

{"item.smiles": "CC1=C2C(=O)[C@H]3[C@@H](CC=C4C[C@@H](O)CC[C@@]43C)[C@@H]2CC[C@]12O[C@@H]1C[C@H](C)CN[C@H]1[C@H]2C", "study.system": "Sonic hedgehog protein (Homo sapiens, UniProt Q15465)", "recorded.result": 6.30}

Now let's try a different one.
Look up pIC50 of `COc1cccc(CN(C(=O)CC(C)(C)C)[C@H]2C[C@@H](C(=O)N3CCNCC3)N(Cc3ccc4c(c3)OCO4)C2)c1` and report it. 7.00

* * *

study.system: Sonic hedgehog protein (Mus musculus)
Sequence (Q62226 25-198 limits assumed): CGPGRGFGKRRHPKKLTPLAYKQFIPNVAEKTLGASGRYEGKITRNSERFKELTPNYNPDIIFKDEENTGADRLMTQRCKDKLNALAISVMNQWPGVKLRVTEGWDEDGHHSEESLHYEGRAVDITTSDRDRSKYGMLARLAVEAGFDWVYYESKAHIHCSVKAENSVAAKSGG
method: Inhibition of SHH in mouse Shh Light2 cells by GLI-responsive firefly luciferase reporter gene assay
Listed here: items and their measured EC50.
Express your answer in µM, writing the number without its unit.

{"item.smiles": "COc1cc(OC)cc(C(=O)Nc2ccc(Cl)c(-c3nc4ccc(N(C)C)cc4[nH]3)c2)c1", "unit.symbol": "µM", "EC50": 0.04}

Kindly review the next molecule as well.
For the molecule `CC1=C2C[C@H]3[C@@H](CC=C4C[C@@H](O)CC[C@@]43C)[C@@H]2CC[C@]12O[C@@H]1C[C@H](C)CN[C@H]1[C@H]2C` , give its measured EC50 value. 0.5

* * *

Below are pIC50 values measured for UniProtKB P08151.
Sequence (P08151 whole entry): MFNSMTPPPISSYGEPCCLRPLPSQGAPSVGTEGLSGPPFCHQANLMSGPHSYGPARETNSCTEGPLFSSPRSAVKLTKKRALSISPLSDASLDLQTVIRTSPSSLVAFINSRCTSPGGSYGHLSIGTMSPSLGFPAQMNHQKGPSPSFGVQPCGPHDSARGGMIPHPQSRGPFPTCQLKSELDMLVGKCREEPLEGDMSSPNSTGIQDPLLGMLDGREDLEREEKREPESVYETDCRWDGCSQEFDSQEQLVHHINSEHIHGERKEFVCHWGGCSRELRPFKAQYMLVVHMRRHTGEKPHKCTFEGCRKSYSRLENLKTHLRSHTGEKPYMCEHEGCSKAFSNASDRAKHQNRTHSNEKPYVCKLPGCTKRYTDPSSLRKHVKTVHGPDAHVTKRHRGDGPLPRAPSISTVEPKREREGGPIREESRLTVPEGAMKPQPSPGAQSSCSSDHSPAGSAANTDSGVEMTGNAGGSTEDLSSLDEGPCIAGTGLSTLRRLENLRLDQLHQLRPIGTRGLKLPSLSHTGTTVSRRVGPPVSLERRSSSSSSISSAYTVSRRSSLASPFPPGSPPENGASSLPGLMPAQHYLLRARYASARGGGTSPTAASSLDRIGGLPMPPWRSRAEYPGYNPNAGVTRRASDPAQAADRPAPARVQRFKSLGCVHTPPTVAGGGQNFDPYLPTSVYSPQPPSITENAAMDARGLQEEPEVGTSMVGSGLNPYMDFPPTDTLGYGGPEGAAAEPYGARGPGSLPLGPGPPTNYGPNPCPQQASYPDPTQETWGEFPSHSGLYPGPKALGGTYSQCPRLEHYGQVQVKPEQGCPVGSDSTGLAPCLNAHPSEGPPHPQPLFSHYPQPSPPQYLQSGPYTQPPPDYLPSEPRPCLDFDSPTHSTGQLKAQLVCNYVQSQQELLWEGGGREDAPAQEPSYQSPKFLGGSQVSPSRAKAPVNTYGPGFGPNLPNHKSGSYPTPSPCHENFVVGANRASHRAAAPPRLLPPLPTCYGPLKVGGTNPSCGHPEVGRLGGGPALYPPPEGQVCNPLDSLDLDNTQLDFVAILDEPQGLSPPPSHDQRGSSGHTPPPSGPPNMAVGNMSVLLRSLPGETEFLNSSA
Value format note: pIC50 is -log10 of concentration (mol/L); just state the number.

{"compound": "C[C@@]12C[C@H]3OC(=O)[C@@H]1CO[C@]14O[C@]5([C@H]2C1=O)[C@@](O)(CC[C@H]1[C@H]4C[C@H]2O[C@]24CC=CC(=O)[C@]14C)C(=O)O[C@@]35C [PHYSALIN F]", "pIC50": 6.18}
{"compound": "C[C@]12C(=O)C=CCC1=CC[C@@H]1[C@@H]2CC[C@]2(O)C(=O)O[C@@]3(C)[C@H]4C[C@]5(C)[C@@H](CO[C@@]16O[C@@]32[C@H]5C6=O)C(=O)O4 [NSC-287088]", "pIC50": 6.21}
{"compound": "O=C1NCc2c1c1c3ccccc3[nH]c1c1[nH]c3ccccc3c21", "pIC50": 5.74}

Then this compound:
Report pIC50 under test system UniProtKB P08151 for C/C1=C\CC(C)(C)/C=C/C(=O)/C(C)=C/CC1 [Zerumbone] . 5.15

* * *

study.system: Sonic hedgehog protein (Mus musculus)
method: Inhibition of SHH in mouse Shh Light2 cells by GLI-responsive firefly luciferase reporter gene assay
Recorded pIC50 values for a group of compounds are listed next.
Note on units: pIC50 is unitless, being -log10 of a concentration expressed in mol/L.

Some solved cases for reference:
{"item.smiles": "CS(=O)(=O)c1ccc(C(=O)Nc2ccc(Cl)c(-c3ccccn3)c2)c(Cl)c1", "pIC50": 8.52}
{"item.smiles": "COc1ccc(Cl)cc1Nc1nc(-c2cccnc2)cs1", "pIC50": 7.00}
{"item.smiles": "c1cc(-c2sc(-c3ccncc3)c(-c3ccncc3)c2-c2ccncc2)ccn1", "pIC50": 5.30}
{"item.smiles": "CC(=O)c1cccc(Nc2nc(-c3ccccc3)cs2)c1", "pIC50": 7.00}

Read off the recorded pIC50 for `CCOc1ccc(Nc2nc(-c3c(C)nc4ccccn34)cs2)cc1` 7.52

Identify measured pIC50 associated with `Cc1nc2ccccn2c1-c1csc(NC(=O)c2ccc3ccccc3c2)n1` 7.00

# return recorded pIC50 for input `CN(C)c1ccccc1CN1CCCN(Cc2ccccc2N(C)C)C1c1ccncc1` 5.30
